Some compounds, each annotated with its measured pEC50.
- TARGET: human APJ receptor (Homo sapiens (Human))
- Sequence (P35414 whole entry): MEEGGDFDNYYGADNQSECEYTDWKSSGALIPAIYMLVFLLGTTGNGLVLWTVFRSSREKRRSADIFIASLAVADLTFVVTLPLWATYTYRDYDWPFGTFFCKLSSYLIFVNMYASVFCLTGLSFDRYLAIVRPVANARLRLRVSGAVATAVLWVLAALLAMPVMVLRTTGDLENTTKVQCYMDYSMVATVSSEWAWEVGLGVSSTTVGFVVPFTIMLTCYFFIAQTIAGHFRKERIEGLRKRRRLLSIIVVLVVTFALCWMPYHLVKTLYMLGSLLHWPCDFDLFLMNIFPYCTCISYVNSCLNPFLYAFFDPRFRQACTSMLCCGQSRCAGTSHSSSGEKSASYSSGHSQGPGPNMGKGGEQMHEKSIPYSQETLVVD
- METHOD DESCRIPTION: [35S]GTPγS binding assay on membranes from CHO cells stably expressing human APJ receptor
- CONDITION LABEL: membranes of CHO cells stably expressing human APJ receptor, read-out: Activity hAPJ SPA EC50 IP
pEC50: −log10 of the molar value.
MEASURE NAME: pEC50

- CC[C@@H](c1conc1C)n1c(NS(=O)(=O)[C@@H](C)[C@H](C)c2ncc(Cl)cn2)nnc1-c1cccc(OC)n1 (single isomer, unassigned) [Example 232.0]: 8.82
- COc1cccc(-c2nnc(NS(=O)(=O)[C@@H](C)[C@H](C)c3ncc(Cl)cn3)n2[C@H](C)c2csnn2)n1 (single isomer, unassigned) [Example 295.0]: 8.19
- COCC(COC)n1c(NS(=O)(=O)[C@@H](C)[C@H](OC)c2ncc(Cl)cn2)nnc1-c1cncc(C)c1 [Example 15.0]: 7.52
- COC[C@H](C)n1c(NS(=O)(=O)[C@@H](C)[C@H](C)c2ncc(Cl)cn2)nnc1-c1ccccn1 [Example 175.0]: 7.52
- COc1cccc(-c2nnc(NS(=O)(=O)[C@@H](C)[C@@H](OC(C)C)c3ncc(C)cn3)n2[C@H](C)[C@@H]2CCCCO2)n1 (single isomer, unassigned) [Example 324.0]: 9.46
- CC[C@H]([C@@H]1CCCCO1)n1c(NS(=O)(=O)[C@@H](C)[C@H](OC)c2ncc(C)cn2)nnc1-c1cccc(OC)n1 (single isomer, unassigned) [Example 329.0]: 8.85
